molecular target: UniProt P07550
Values of -Delta G greater than or equal to 9 map to T; values below map to F.

Determine whether measured -Delta G meets or exceeds 9 for CC(C)NCC(O)COc1cccc2[nH]ccc12 (configuration not stated) T

Determine whether measured -Delta G meets or exceeds 9 for Cc1cccc(OCC(O)CNC(C)C)c1 (racemic) T

Determine whether measured -Delta G meets or exceeds 9 for CC(C)NCC(O)c1ccc(O)c(CO)c1 (racemic) F

Determine whether measured -Delta G meets or exceeds 9 for CNc1cc(C(O)CNC(C)(C)C)ccc1O (racemic) T

Determine whether measured -Delta G meets or exceeds 9 for CC(C)(C)NCC(O)c1ccc(O)c(N)c1 (racemic) F

Determine whether measured -Delta G meets or exceeds 9 for NC[C@H](O)c1ccc(O)c(O)c1 F

Determine whether measured -Delta G meets or exceeds 9 for CC(C)NCC(O)c1cccc(O)c1 (racemic) F

====

Assignment: determine reported -Delta G for the given molecules.
target: Beta-2 adrenergic receptor (Bos taurus); details: Muscle tissue
Description: Change in Gibb's free energy at Low affinity beta-2-adrenoceptor in the membranes of bovine skeletal muscle preparation

Using the record for CC(C)(C)NCC(O)c1cc(Cl)c(N)c(Cl)c1 (racemic) , state its measured -Delta G. 11

Using the record for CC(C)(C)NCC(O)c1ccc(O)c(O)c1 (racemic) , state its measured -Delta G. 9.29

Using the record for CC(C)(C)NCC(O)c1cc(Cl)c(O)c(Cl)c1 (racemic) , state its measured -Delta G. 10.5

Using the record for CC(C)(C)NCC(O)c1cc(O)cc(O)c1 (racemic) , state its measured -Delta G. 8.13

Using the record for CCCc1ccccc1OCC(O)CNC(C)C (stereo unspecified) , state its measured -Delta G. 13.1

Using the record for Cc1cccc(OCC(O)CNC(C)C)c1 (racemic) , state its measured -Delta G. 10.9

====

Target or system Beta-2 adrenergic receptor (Homo sapiens) (UniProt P07550); recorded quantity -Delta G.
Kindly provide the number alone.

Using the record for CC(C)(C)NCC(O)c1cc(Cl)c(O)c(Cl)c1 (racemic) , state its measured -Delta G. 11.1

Using the record for CC(C)NC[C@H](O)COc1ccc(O)cc1 (racemic) , state its measured -Delta G. 9.76

Using the record for CC(C)(C)NCC(O)c1ccccc1Cl (stereo not given) , state its measured -Delta G. 9.17

Using the record for CC(C)(C)NCC(O)c1ccc(O)c(O)c1 (racemic) , state its measured -Delta G. 8.5

Using the record for CC(C)(C)NCC(O)COc1cccc2[nH]c(C#N)c(I)c12 (racemic) , state its measured -Delta G. 15.2

Using the record for CC(C)NCC(O)c1cc(Cl)c(N)c(Cl)c1 (racemic) , state its measured -Delta G. 9.08

Using the record for CC(C)(C)NCC(O)c1ccc(O)c(C(N)=O)c1 (racemic) , state its measured -Delta G. 9.54

Using the record for CC(C)(N)CNCC(O)COc1cccc2[nH]ccc12 (racemic) , state its measured -Delta G. 10.1

Using the record for CC(C)NCC(O)c1cc(O)cc(O)c1 (racemic) , state its measured -Delta G. 7.19

Using the record for CNC[C@H](O)c1ccc(O)c(O)c1 , state its measured -Delta G. 6.92

====

Target or system Beta-2 adrenergic receptor (Homo sapiens); recorded quantity -Delta G.

Using the record for CC(C)NCC(O)c1ccc([N+](=O)[O-])cc1 (racemic) , state its measured -Delta G. 8.23

Using the record for C=CCc1ccccc1OCC(O)CNCC(C)(C)N (stereo unspecified) , state its measured -Delta G. 9.54

Using the record for CC(Cc1ccc(O)cc1)NCC(O)c1cc(O)cc(O)c1 (racemic) , state its measured -Delta G. 8.28

Using the record for Cc1cc(C)cc(OCC(O)CNC(C)C)c1 (racemic) , state its measured -Delta G. 10.4

Using the record for CCCc1ccccc1OCC(O)CNC(C)C (stereo unspecified) , state its measured -Delta G. 12.9

Using the record for CC(C)NCC(O)c1ccc(O)c(N)c1 (racemic) , state its measured -Delta G. 7.17
